METHOD_NOTES: NCI Yeast Anticancer Drug Screen. Data for the mec2-1 strain (AID 157)
CONDITION_DETAILS: S. cerevisiae mec2-1 strain, at 3.7 µM, active compounds read high
About 79,000 compounds went through this panel and 15% of them were active in at least one assay; those are over-represented in the sample as a whole.
QUANTITY: growth inhibition (%)
Write down the numeric answer in % and omit the unit.

Lookup: Please look up its growth inhibition: c1ccc2c(c1)sc1cc3ccncc3cc12
Found: -1

Lookup: Please look up its growth inhibition: Cc1nn(-c2cc(Cl)ccc2[N+](=O)[O-])c(C)c1Cl
Found: 0

Lookup: Please look up its growth inhibition: Cn1c(=O)c2ccccc2c2ccccc21
Found: 0

Lookup: Please look up its growth inhibition: C=C(CN(C)C)C(=O)c1cc(C)ccc1C
Found: 38

Lookup: Please look up its growth inhibition: CC[C@@]1(O)C(=O)OCc2c1cc1n(c2=O)Cc2cc3c(N)cccc3nc2-1
Found: -1

* * *

// values below are reported growth inhibition
METHOD_NOTES: NCI Yeast Anticancer Drug Screen. Data for the mlh1 strain (AID 171);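 also: 0% = growth of vehicle-treated control cultures of the same strain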
CONDITION_DETAILS: S. cerevisiae mlh1 strain growth inhibition; at 3.7 µM; active compounds read high
This is part of a sample that, as a whole, favours compounds with a hit. Of some 79,000 tested, about 15% had one in any assay.
Write down the numeric answer in % and omit the unit.

COMPOUND | QUANTITY | NUMERIC_READOUT
CC(C)C1=CC2=C[C@H](O)[C@H]3C(C)(C)CCC[C@]3(C)C2=C(O)C1=O | growth inhibition | 23

Lookup: Please look up its growth inhibition: CCN(CC)CCC(=O)c1ccc(Oc2ccc(F)cc2)cc1
Found: 37

Lookup: Please look up its growth inhibition: CNC1C(OC2C(OC3C(O)C(O)C(N=C(N)N)C(O)C3N=C(N)N)OC(C)C2(O)CO)OC(CO)C(O)C1O (centres undefined)
Found: -4

Lookup: Please look up its growth inhibition: Cc1ccc(S(=O)(=O)Oc2cc(Cl)c(Cl)cc2Cl)cc1
Found: 1

* * *

// values below are reported growth inhibition
METHOD_NOTES: NCI Yeast Anticancer Drug Screen. Data for the rad50EPP+ strain (AID 151);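 also: 0% = growth of vehicle-treated control cultures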
CONDITION_DETAILS: S. cerevisiae rad50 mutant strain, at 3.7 µM, active compounds read high
About 79,000 compounds went through this panel and 15% of them were active in at least one assay; those are over-represented in the sample as a whole.
Write down the numeric answer in % and omit the unit.

COMPOUND | UNIT_INFO | growth inhibition
CC(=O)Cc1ccc[cH-]1.[Fe+2].c1cc[cH-]c1 | % | 4
O=C(c1ccc(Cl)cc1)C1OC12C(=O)Nc1ccccc12 (stereo not given) | % | 99
COc1cccc2nc3ccccc3nc12 | % | 8
C=C1CC(Cn2cc(Br)c(=O)[nH]c2=O)(c2ccc(-c3ccccc3)cc2)OC1=O (stereo not given) | % | -5
Fc1ccc(NC(=S)SCc2ccc(Cl)c(Cl)c2)cc1F | % | 25

Lookup: Please look up its growth inhibition: S=C(N/N=C(/c1ccccc1)c1ccccn1)N1CCCCCC1
Found: 7

Lookup: Please look up its growth inhibition: CN(C)Cc1cc(N=Nc2ccc(Cl)cc2)cc(CN(C)C)c1O
Found: -1

Lookup: Please look up its growth inhibition: O=C(COC(=O)c1cc(O)c(O)c(O)c1)c1ccc(-c2ccccc2)cc1
Found: 21

Lookup: Please look up its growth inhibition: O=[N+]([O-])c1cccc2nccc(NCCCO)c12
Found: 13

Lookup: Please look up its growth inhibition: O=C(Cc1csc2[n+]1C(=O)/C(=C/c1ccc(Cl)cc1)S2)Nc1ccccc1
Found: 8
